Target: Beta-1 adrenergic receptor (Homo sapiens, UniProt P08588); also: assay procedure not described here
Sequence (P08588 whole entry): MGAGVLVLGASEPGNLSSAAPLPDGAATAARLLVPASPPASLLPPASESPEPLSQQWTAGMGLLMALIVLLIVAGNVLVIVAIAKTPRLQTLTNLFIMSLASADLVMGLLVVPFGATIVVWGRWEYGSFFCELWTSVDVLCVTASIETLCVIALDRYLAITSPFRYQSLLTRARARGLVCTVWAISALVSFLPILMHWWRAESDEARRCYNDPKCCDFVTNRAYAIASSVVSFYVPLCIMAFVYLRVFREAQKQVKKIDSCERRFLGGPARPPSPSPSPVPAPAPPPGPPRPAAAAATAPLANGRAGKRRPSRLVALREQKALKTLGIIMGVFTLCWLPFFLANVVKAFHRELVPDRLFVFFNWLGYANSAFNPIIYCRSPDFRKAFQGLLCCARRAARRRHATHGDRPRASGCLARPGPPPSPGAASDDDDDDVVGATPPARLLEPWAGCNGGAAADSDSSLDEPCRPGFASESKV
Assay type: functional
measure.name: AC50

> print(dat)
                                    molecule                        measurement.target  measure.name  recorded.value
 1  COc1cc2[nH]c(C)c(CCN3CCN(c4ccccc4)CC3)c2cc1OC [OXYPERTINE]  Beta-1 adrenergic receptor (Homo sapiens, UniProt P08588)          AC50           26 µM
 2  COc1cc(C(=O)NS(=O)(=O)c2ccccc2C)ccc1Cc1cn(C)c2ccc(NC(=O)OC3CCCC3)cc12 [ZAFIRLUKAST]  Beta-1 adrenergic receptor (Homo sapiens, UniProt P08588)          AC50         > 10 µM
 3  CN(C)C/C=C/C(=O)Nc1cc2c(Nc3ccc(F)c(Cl)c3)ncnc2cc1O[C@H]1CCOC1 [AFATINIB]  Beta-1 adrenergic receptor (Homo sapiens, UniProt P08588)          AC50         > 30 µM
 4               NNC(=O)c1ccncc1 [ISONIAZID]  Beta-1 adrenergic receptor (Homo sapiens, UniProt P08588)          AC50         > 30 µM
 5  CCc1nc(N)nc(N)c1-c1ccc(Cl)cc1 [PYRIMETHAMINE]  Beta-1 adrenergic receptor (Homo sapiens, UniProt P08588)          AC50         > 10 µM
 6  CC(C)(O/N=C(\C(=O)N[C@@H]1C(=O)N2C(C(=O)[O-])=C(C[n+]3ccccc3)CS[C@H]12)c1csc(N)n1)C(=O)O [CEFTAZIDIME]  Beta-1 adrenergic receptor (Homo sapiens, UniProt P08588)          AC50        > 300 µM
 7  CCCCCCCN(CC)CCCC(O)c1ccc(NS(C)(=O)=O)cc1 (configuration not stated) [IBUTILIDE]  Beta-1 adrenergic receptor (Homo sapiens, UniProt P08588)          AC50         > 30 µM
 8  O=C1c2ccccc2C(=O)C1c1ccccc1 [PHENINDIONE]  Beta-1 adrenergic receptor (Homo sapiens, UniProt P08588)          AC50         > 10 µM
 9  CO/N=C(\C(=O)N[C@@H]1C(=O)N2C(C(=O)O)=CCS[C@H]12)c1csc(N)n1 [CEFTIZOXIME]  Beta-1 adrenergic receptor (Homo sapiens, UniProt P08588)          AC50         > 30 µM
10  CC(=O)c1ccc(S(=O)(=O)NC(=O)NC2CCCCC2)cc1 [ACETOHEXAMIDE]  Beta-1 adrenergic receptor (Homo sapiens, UniProt P08588)          AC50         > 10 µM
11  COC(=O)[C@H]1[C@H]2C[C@@H]3c4[nH]c5cc(OC)ccc5c4CCN3C[C@H]2C[C@@H](OC(=O)c2cc(OC)c(OC)c(OC)c2)[C@@H]1OC [RESERPINE]  Beta-1 adrenergic receptor (Homo sapiens, UniProt P08588)          AC50         > 10 µM
12  COc1ccccc1OC1(C)OC(=O)c2ccccc2O1 (configuration not stated) [GUAIMESAL]  Beta-1 adrenergic receptor (Homo sapiens, UniProt P08588)          AC50         > 30 µM
13  C=CC[N+]1([C@H]2C[C@H]3[C@@H]4CC[C@H]5C[C@H](O)[C@@H](N6CCOCC6)C[C@]5(C)[C@H]4CC[C@]3(C)[C@H]2OC(C)=O)CCCC1 [ROCURONIUM]  Beta-1 adrenergic receptor (Homo sapiens, UniProt P08588)          AC50         > 30 µM
14  COc1cc(C(C)=O)ccc1OCCCN1CCC(c2noc3cc(F)ccc23)CC1 [ILOPERIDONE]  Beta-1 adrenergic receptor (Homo sapiens, UniProt P08588)          AC50         > 30 µM
15  CC1=C(/C=C/C(C)=C/C=C/C(C)=C/CO)C(C)(C)CCC1 [RETINOL]  Beta-1 adrenergic receptor (Homo sapiens, UniProt P08588)          AC50         > 10 µM
16  CCCN(CCC)S(=O)(=O)c1ccc(C(=O)O)cc1 [PROBENECID]  Beta-1 adrenergic receptor (Homo sapiens, UniProt P08588)          AC50         > 10 µM
17  Oc1ccc(CCNCCCCCCNCCc2ccccc2)cc1O [DOPEXAMINE]  Beta-1 adrenergic receptor (Homo sapiens, UniProt P08588)          AC50         > 30 µM

Values from ChEMBL document CHEMBL5291721
